Below, each entry is listed alongside its reported inhibition at 1 µM.
target: IKZF2 (Helios) (Homo sapiens, UniProt Q96SW2+Q9UKS7); construct: Leu-Asp junction (codons ctcgac before the linker); mScarlet (behind P2A) (C, cleaved yes); expressed in transfected cells; experiment: IKZF2 reporter degradation assay (HEK 293T IKZF2-mNeonGreen reporter cell line); format: cell-based; conditions: HEK-293T, 24 h, @ 1 μM, HEK 293T IKZF2-mNeonGreen reporter, 24 hours incubation
Sequence (Q9UKS7 whole entry): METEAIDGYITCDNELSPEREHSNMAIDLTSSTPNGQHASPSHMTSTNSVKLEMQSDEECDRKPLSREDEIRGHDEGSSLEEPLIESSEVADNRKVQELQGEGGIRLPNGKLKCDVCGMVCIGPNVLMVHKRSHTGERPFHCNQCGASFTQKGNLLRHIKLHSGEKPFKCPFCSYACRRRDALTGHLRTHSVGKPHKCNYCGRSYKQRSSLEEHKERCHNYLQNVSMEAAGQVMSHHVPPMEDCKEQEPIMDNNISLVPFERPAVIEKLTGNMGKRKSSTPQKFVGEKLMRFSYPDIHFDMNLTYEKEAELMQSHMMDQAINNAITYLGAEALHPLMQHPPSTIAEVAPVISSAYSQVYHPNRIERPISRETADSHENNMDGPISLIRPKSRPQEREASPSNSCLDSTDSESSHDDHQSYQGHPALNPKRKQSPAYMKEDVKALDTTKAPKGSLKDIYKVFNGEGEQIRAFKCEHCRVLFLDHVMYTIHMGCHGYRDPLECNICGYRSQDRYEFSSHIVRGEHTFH
Sequence (Q96SW2 whole entry): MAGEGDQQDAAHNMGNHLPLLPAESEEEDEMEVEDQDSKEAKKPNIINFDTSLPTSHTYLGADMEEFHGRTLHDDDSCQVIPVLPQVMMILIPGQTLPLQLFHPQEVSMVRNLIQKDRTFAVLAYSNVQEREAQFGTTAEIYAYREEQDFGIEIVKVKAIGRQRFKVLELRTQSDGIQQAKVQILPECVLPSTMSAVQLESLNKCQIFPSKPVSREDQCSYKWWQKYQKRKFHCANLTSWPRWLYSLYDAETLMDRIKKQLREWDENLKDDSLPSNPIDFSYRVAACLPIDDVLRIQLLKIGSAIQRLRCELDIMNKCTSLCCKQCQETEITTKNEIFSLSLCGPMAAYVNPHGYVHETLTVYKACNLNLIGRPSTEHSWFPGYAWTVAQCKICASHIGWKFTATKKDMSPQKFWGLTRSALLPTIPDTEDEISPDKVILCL
Sequence (Q16531 whole entry partner): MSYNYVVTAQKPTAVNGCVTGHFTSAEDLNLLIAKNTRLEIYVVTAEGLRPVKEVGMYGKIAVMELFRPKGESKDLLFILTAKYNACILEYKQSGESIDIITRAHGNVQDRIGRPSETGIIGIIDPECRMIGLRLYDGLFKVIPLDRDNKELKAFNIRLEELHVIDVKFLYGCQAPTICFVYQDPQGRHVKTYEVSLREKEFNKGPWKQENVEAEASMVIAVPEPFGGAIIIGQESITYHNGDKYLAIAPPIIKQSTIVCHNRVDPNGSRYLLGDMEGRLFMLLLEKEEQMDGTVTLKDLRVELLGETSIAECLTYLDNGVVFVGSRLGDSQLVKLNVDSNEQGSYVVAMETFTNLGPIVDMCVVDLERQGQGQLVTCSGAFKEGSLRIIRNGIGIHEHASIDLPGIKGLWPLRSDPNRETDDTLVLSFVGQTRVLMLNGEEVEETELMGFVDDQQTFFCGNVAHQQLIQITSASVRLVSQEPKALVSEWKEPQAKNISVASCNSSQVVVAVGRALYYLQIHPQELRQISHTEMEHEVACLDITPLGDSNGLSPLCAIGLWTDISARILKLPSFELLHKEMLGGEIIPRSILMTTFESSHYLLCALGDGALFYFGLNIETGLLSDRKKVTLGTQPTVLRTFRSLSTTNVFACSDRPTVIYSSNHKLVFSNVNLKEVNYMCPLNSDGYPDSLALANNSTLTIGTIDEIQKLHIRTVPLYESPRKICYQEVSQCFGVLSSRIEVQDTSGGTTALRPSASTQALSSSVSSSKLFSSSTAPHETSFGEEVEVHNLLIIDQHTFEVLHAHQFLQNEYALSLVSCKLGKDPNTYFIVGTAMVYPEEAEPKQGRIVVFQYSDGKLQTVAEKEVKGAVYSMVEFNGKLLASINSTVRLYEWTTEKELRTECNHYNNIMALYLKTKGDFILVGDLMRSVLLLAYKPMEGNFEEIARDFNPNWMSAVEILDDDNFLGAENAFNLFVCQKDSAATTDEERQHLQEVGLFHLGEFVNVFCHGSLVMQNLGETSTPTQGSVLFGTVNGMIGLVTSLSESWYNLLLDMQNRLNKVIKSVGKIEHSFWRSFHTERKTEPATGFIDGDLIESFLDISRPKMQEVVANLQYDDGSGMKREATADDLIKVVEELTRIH
The response must be a number in % with no trailing unit.

See these solved cases before continuing.
> print(dat)
                                   molecule                               test.target         result.type  value.reported
1  COc1cc(C2CN(C3CCCC3Oc3ccc4c(c3)CN(C3CCC(=O)NC3=O)C4=O)C2)ccn1 (stereo not drawn)  IKZF2 (Helios) (Homo sapiens, UniProt Q96SW2+Q9UKS7)  inhibition at 1 µM            54.6
2  CC(C)(C)OC(=O)N1CCC(C2CN([C@H]3CCCC[C@@H]3Oc3ccc4c(c3)CN(C3CCC(=O)NC3=O)C4=O)C2)CC1 (stereo partly drawn)  IKZF2 (Helios) (Homo sapiens, UniProt Q96SW2+Q9UKS7)  inhibition at 1 µM            74.7
3  O=C1CCC(N2Cc3cc(OC4CCCCC4N4CC(c5ccnc6[nH]ccc56)C4)ccc3C2=O)C(=O)N1 (stereo not drawn)  IKZF2 (Helios) (Homo sapiens, UniProt Q96SW2+Q9UKS7)  inhibition at 1 µM              75
4  O=C1CCC(N2Cc3cc(O[C@H]4CCCC[C@@H]4N4CC(c5ccc(C(F)(F)F)cn5)C4)ccc3C2=O)C(=O)N1 (mixture of isomers) [Compound 192-B]  IKZF2 (Helios) (Homo sapiens, UniProt Q96SW2+Q9UKS7)  inhibition at 1 µM            25.6
5  O=C1CCC(N2Cc3cc(O[C@H]4CCCC[C@@H]4N4CC(C5CCN(C(=O)C6CC(F)(F)C6)CC5)C4)ccc3C2=O)C(=O)N1 (stereo partly drawn)  IKZF2 (Helios) (Homo sapiens, UniProt Q96SW2+Q9UKS7)  inhibition at 1 µM            84.7

For the molecule CN(C)C(=O)C1CCN(c2ccc(CN3CCC(O)(c4ccc5c(c4)CN(C4CCC(=O)NC4=O)C5=O)CC3)cc2)CC1 (stereo not drawn) , what inhibition at 1 µM is on record?
37.4

---

molecular target: IKZF3 (Aiolos) (Homo sapiens, UniProt Q9UKT9); construct: Leu-Asp junction (codons ctcgac before the linker); mScarlet (behind P2A) (C, cleaved yes); expressed in transfected cells; assay: IKZF3 reporter degradation assay (HEK 293T IKZF3-mNeonGreen reporter cell line); format: cell-based; conditions: HEK 293T IKZF3-mNeonGreen reporter, 24 hours incubation
Sequence (Q9UKT9 whole entry, one chain of several): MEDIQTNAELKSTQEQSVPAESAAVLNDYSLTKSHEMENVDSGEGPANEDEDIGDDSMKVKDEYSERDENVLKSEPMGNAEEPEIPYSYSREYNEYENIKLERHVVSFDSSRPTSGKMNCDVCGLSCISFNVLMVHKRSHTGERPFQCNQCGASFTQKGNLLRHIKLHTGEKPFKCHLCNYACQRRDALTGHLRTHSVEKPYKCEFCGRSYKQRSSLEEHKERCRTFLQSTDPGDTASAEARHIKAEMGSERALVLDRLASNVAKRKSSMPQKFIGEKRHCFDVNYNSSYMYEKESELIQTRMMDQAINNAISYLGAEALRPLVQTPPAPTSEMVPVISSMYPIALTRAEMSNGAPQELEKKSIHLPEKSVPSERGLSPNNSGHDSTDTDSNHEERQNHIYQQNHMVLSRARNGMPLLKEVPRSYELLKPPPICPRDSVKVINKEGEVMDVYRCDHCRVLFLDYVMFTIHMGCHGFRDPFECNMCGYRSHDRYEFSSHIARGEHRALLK
Result type: DC50

See these solved cases before continuing.
> print(dat)
                                   compound  result.type  value.reported
1  CC1(C(=O)N2CCC(C3CN([C@H]4CCCC[C@@H]4Oc4ccc5c(c4)CN(C4CCC(=O)NC4=O)C5=O)C3)CC2)COC1 (stereo partly drawn)         DC50         > 30 µM
2  O=C1CCC(N2Cc3cc(O[C@H]4CCCC[C@@H]4N4CC(c5cc(Cl)ccn5)C4)ccc3C2=O)C(=O)N1 (mixture of isomers)         DC50         > 30 µM

Proceed to the following item.
For the compound O=C1CCC(N2Cc3cc(O[C@H]4CCCC[C@@H]4N4CC(C5CCN(C(=O)CC6CC6)CC5)C4)ccc3C2=O)C(=O)N1 (stereo partly drawn) , what DC50 is on record?
0.544 µM
